# test-target: UniProt P32245
# experimental-protocol: High and low density hMC4-R functional assay (cAMP, HEK293-T-REx-MC4-R cells)
# Type: cell-based
# condition-label: 10 ng/mL Doxycycline (high density hMC4-R system)
measurement-kind: EC50 (nM)
Answers are plain numbers, in nM.

| smiles-input | EC50, nM |
| --- | --- |
| CC(=O)N[C@@H](CCCNC(=N)N)C(=O)N[C@H]1CCC(=O)NCCC[C@@H](C(N)=O)NC(=O)[C@H](Cc2c[nH]c3ccccc23)NC(=O)[C@H](CCCNC(=N)N)NC(=O)[C@@H](Cc2cccc(Cl)c2)NC(=O)[C@H](CCCNC(N)=O)NC1=O | 0.14 |

[ask] Recorded EC50 of `CC(=O)N[C@@H](CCCNC(=N)N)C(=O)N[C@H]1CCC(=O)NCCC[C@@H](C(N)=O)NC(=O)[C@H](Cc2c[nH]c3ccccc23)NC(=O)[C@H](CCCNC(=N)N)NC(=O)[C@@H](Cc2ccccc2F)NC(=O)[C@H](CO)NC1=O` , please.
[reply] 0.25

###

For each entry below, report its EC50 value.
# test-target: hMC4-R (Homo sapiens (Human))
# experimental-protocol: High and low density hMC4-R functional assay (cAMP, HEK293-T-REx-MC4-R cells)
# Type: cell-based
# condition-label: 0.1 ng/mL Doxycycline (low density hMC4-R system)
One number for each entry, in nM.

Some solved cases for reference:
| smiles-input | EC50 (nM) |
| --- | --- |
| CC(=O)N[C@@H](CCCNC(=N)N)C(=O)N[C@H]1CCC(=O)NCCC[C@@H](C(N)=O)NC(=O)[C@H](Cc2c[nH]c3ccccc23)NC(=O)[C@H](CCCNC(=N)N)NC(=O)[C@@H](Cc2cccc(Cl)c2)NC(=O)[C@H](CCCN)NC1=O | 0.95 |
| CC(=O)N[C@H](CCCNC(=N)N)C(=O)N[C@H]1CC(=O)NCCCC[C@@H](C(N)=O)NC(=O)[C@H](Cc2c[nH]c3ccccc23)NC(=O)[C@H](CCCNC(=N)N)NC(=O)[C@@H](Cc2ccc(F)c(F)c2)NC(=O)[C@H](CCC(N)=O)NC1=O | 2 |
| CC(=O)N[C@@H](CCCNC(=N)N)C(=O)N[C@H]1CCC(=O)NCCC[C@@H](C(N)=O)NC(=O)[C@H](Cc2c[nH]c3ccccc23)NC(=O)[C@H](CCCNC(=N)N)NC(=O)[C@@H](Cc2ccc(C#N)cc2)NC(=O)[C@H](CCN)NC1=O | 0.3 |

Lab note: next molecule to report on.
[ask] Recorded EC50 of `CC(=O)N[C@@H](CCCNC(=N)N)C(=O)N[C@H]1CCC(=O)NCCC[C@@H](C(N)=O)NC(=O)[C@H](Cc2c[nH]c3ccccc23)NC(=O)[C@H](CCCNC(=N)N)NC(=O)[C@@H](Cc2ccc(O)cc2)NC(=O)[C@H](CCN)NC1=O` , please.
[reply] 48

###

# test-target: hMC4-R (Homo sapiens (Human), UniProt P32245)
# Sequence (P32245 whole entry): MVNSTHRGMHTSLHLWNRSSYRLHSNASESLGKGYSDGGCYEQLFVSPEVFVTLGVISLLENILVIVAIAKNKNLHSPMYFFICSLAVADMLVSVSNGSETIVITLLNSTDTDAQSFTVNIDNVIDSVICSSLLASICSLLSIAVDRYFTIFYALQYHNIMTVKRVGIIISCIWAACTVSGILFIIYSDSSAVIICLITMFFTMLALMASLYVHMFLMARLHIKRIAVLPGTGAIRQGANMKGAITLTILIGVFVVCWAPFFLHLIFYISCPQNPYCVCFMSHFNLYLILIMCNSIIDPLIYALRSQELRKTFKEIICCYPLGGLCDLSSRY
# experimental-protocol: High and low density hMC4-R functional assay (cAMP, HEK293-T-REx-MC4-R cells)
# Type: cell-based
# condition-label: 0.1 ng/mL Doxycycline (low density hMC4-R system); NDP-α-MSH = 100%; read-out: Intrinsic Activity (%)
For each entry below, report its Emax value.
Give bare numbers, in %.

| compound | observed-value |
| --- | --- |
| CC(=O)N[C@@H](CCCNC(=N)N)C(=O)N[C@H]1CCC(=O)NCCC[C@@H](C(N)=O)NC(=O)[C@H](Cc2c[nH]c3ccccc23)NC(=O)[C@H](CCCNC(=N)N)NC(=O)[C@@H](Cc2ccc(C#N)cc2)NC(=O)[C@@H]2CCCN2C1=O [Example 39] | 4 |

Lab note: next compound to report on.
[ask] Give recorded Emax with hMC4-R (Homo sapiens (Human), UniProt P32245) for the following compound: COc1ccc(C[C@H]2NC(=O)[C@H](CCN)NC(=O)[C@@H](NC(=O)[C@H](CCCNC(=N)N)NC(C)=O)CCC(=O)NCCC[C@@H](C(N)=O)NC(=O)[C@H](Cc3c[nH]c4ccccc34)NC(=O)[C@H](CCCNC(=N)N)NC2=O)cc1OC [Example 25]
[reply] 23
